experiment: 64Cu-NODAGA-CG34 PET/CT in bleomycin-induced lung injury; type: in vivo, mouse; details: mouse, lung, lung %ID/gmax, baseline, PET
Square brackets hold non-standard residues; d marks the D form. Peptide text beside a SMILES is read from it. * marks the point of attachment. NODAGA = O=C(O)CN1CCN(CC(=O)O)CCN(C(CCC(=O)*)C(=O)O)CC1; Tic = O=C(O)[C@@H]1Cc2ccccc2CN1
observable: tissue uptake

1) CC(C)C[C@H](NC(=O)[C@H](Cc1ccccc1)NC(=O)[C@@H](Cc1ccc(O)cc1)NC(=O)CCC(C(=O)O)N1CCN(CC(=O)O)CCN(CC(=O)O)CC1)C(=O)N1CCC[C@H]1C(=O)N[C@H](CO)C(=O)N[C@@H](CCC(N)=O)C(=O)N[C@@H](Cc1ccccc1)C(=O)N[C@H](C)C(=O)N1Cc2ccccc2C[C@H]1C(=O)N[C@@H](CO)C(=O)O (stereo partly shown) [64Cu-NODAGA-CG34, metal not drawn] ({NODAGA}-[dY]FLP[dS]QF[dA][Tic]S-OH; N-terminus and C-terminus assumed); 1.38 %ID/g

----------
assay: 64Cu-NODAGA-CG34 PET/CT in bleomycin-induced lung injury; format: in vivo, mouse; conditions: mouse, lung, lung %ID/gmax, 4 weeks, PET
Square brackets hold non-standard residues; d marks the D form. Peptide text beside a SMILES is read from it. * marks the point of attachment. NODAGA = O=C(O)CN1CCN(CC(=O)O)CCN(C(CCC(=O)*)C(=O)O)CC1; Tic = O=C(O)[C@@H]1Cc2ccccc2CN1
observable: tissue uptake (%ID/g)

1) CC(C)C[C@H](NC(=O)[C@H](Cc1ccccc1)NC(=O)[C@@H](Cc1ccc(O)cc1)NC(=O)CCC(C(=O)O)N1CCN(CC(=O)O)CCN(CC(=O)O)CC1)C(=O)N1CCC[C@H]1C(=O)N[C@H](CO)C(=O)N[C@@H](CCC(N)=O)C(=O)N[C@@H](Cc1ccccc1)C(=O)N[C@H](C)C(=O)N1Cc2ccccc2C[C@H]1C(=O)N[C@@H](CO)C(=O)O (stereo partly shown) [64Cu-NODAGA-CG34, metal not drawn] ({NODAGA}-[dY]FLP[dS]QF[dA][Tic]S-OH; N-terminus and C-terminus assumed); 1.96

----------
target: norepinephrine transporter (NET) (Homo sapiens); assay: competitive 3H-NE uptake assay in SK-N-SH cells; conditions: read-out: IC50 of 3H-NE uptake; 60 min at 37°C, with pyrogallol and pargyline
Sequence (P23975 whole entry): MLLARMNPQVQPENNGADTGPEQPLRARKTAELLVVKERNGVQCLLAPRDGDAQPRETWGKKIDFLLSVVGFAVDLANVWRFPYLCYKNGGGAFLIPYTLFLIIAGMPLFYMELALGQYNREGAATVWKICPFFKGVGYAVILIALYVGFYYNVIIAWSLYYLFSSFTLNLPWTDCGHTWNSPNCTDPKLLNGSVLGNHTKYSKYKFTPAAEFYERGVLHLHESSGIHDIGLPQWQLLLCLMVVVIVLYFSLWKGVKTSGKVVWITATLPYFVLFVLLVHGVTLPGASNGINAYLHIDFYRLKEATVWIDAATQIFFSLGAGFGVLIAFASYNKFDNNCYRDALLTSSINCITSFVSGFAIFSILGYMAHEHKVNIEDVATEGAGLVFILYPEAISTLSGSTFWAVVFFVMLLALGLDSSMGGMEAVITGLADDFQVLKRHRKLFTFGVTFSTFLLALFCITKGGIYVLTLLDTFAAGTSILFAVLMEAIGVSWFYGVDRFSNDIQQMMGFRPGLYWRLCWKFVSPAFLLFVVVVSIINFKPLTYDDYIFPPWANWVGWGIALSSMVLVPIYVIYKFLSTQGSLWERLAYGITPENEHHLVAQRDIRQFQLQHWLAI
observable: IC50

1. N=C(N)NCc1cccc(I)c1; 1.75 µM

----------
experiment: 64Cu-NODAGA-CG34 PET/CT in bleomycin-induced lung injury; assay type: in vivo, mouse; conditions: mouse, lung, lung %ID/gmax, 2 weeks, PET
Square brackets hold non-standard residues; d marks the D form. Peptide text beside a SMILES is read from it. * marks the point of attachment. NODAGA = O=C(O)CN1CCN(CC(=O)O)CCN(C(CCC(=O)*)C(=O)O)CC1; Tic = O=C(O)[C@@H]1Cc2ccccc2CN1
observable: tissue uptake (%ID/g)

1. CC(C)C[C@H](NC(=O)[C@H](Cc1ccccc1)NC(=O)[C@@H](Cc1ccc(O)cc1)NC(=O)CCC(C(=O)O)N1CCN(CC(=O)O)CCN(CC(=O)O)CC1)C(=O)N1CCC[C@H]1C(=O)N[C@H](CO)C(=O)N[C@@H](CCC(N)=O)C(=O)N[C@@H](Cc1ccccc1)C(=O)N[C@H](C)C(=O)N1Cc2ccccc2C[C@H]1C(=O)N[C@@H](CO)C(=O)O (stereo partly shown) [64Cu-NODAGA-CG34, metal not drawn] ({NODAGA}-[dY]FLP[dS]QF[dA][Tic]S-OH; N-terminus and C-terminus assumed); 3.35

----------
assay: 64Cu-NODAGA-CG34 PET/CT in bleomycin-induced lung injury; format: in vivo, mouse; conditions: mouse, lung, lung %ID/gmean, 4 weeks, PET
Square brackets hold non-standard residues; d marks the D form. Peptide text beside a SMILES is read from it. * marks the point of attachment. NODAGA = O=C(O)CN1CCN(CC(=O)O)CCN(C(CCC(=O)*)C(=O)O)CC1; Tic = O=C(O)[C@@H]1Cc2ccccc2CN1
observable: tissue uptake

1) CC(C)C[C@H](NC(=O)[C@H](Cc1ccccc1)NC(=O)[C@@H](Cc1ccc(O)cc1)NC(=O)CCC(C(=O)O)N1CCN(CC(=O)O)CCN(CC(=O)O)CC1)C(=O)N1CCC[C@H]1C(=O)N[C@H](CO)C(=O)N[C@@H](CCC(N)=O)C(=O)N[C@@H](Cc1ccccc1)C(=O)N[C@H](C)C(=O)N1Cc2ccccc2C[C@H]1C(=O)N[C@@H](CO)C(=O)O (stereo partly shown) [64Cu-NODAGA-CG34, metal not drawn] ({NODAGA}-[dY]FLP[dS]QF[dA][Tic]S-OH; N-terminus and C-terminus assumed); 1.03 %ID/g

----------
test: 64Cu-NODAGA-CG34 PET/CT in bleomycin-induced lung injury; format: in vivo, mouse; conditions: mouse, lung, lung %ID/gmean, 2 weeks, PET
Square brackets hold non-standard residues; d marks the D form. Peptide text beside a SMILES is read from it. * marks the point of attachment. NODAGA = O=C(O)CN1CCN(CC(=O)O)CCN(C(CCC(=O)*)C(=O)O)CC1; Tic = O=C(O)[C@@H]1Cc2ccccc2CN1
observable: tissue uptake

1. CC(C)C[C@H](NC(=O)[C@H](Cc1ccccc1)NC(=O)[C@@H](Cc1ccc(O)cc1)NC(=O)CCC(C(=O)O)N1CCN(CC(=O)O)CCN(CC(=O)O)CC1)C(=O)N1CCC[C@H]1C(=O)N[C@H](CO)C(=O)N[C@@H](CCC(N)=O)C(=O)N[C@@H](Cc1ccccc1)C(=O)N[C@H](C)C(=O)N1Cc2ccccc2C[C@H]1C(=O)N[C@@H](CO)C(=O)O (stereo partly shown) [64Cu-NODAGA-CG34, metal not drawn] ({NODAGA}-[dY]FLP[dS]QF[dA][Tic]S-OH; N-terminus and C-terminus assumed); 1.83 %ID/g
